experiment: Plasma pharmacokinetics of the parent compound after a single oral dose of prodrug; format: in vivo; details: single oral dose 10 mg/kg, fasted male Sprague Dawley rats; plasma analyzed for the parent compound; study duration 8 h
Reported Property: AUC0-last hour (area under the curve)

Use the examples below as a reference point.
>  <Compound>
C=Cc1cc(C(=O)Nc2ccc(C(=N)NC(=O)OCCCCCC)cc2)c(-c2ccc(C(=O)NCC3CC3)nc2C(=O)OC(C)OC(=O)NC(C)C)cc1OC (stereo not drawn) [Compound 81d]

>  <Reading>
A (A = 0-1,000 ng/mL)

$$$$
>  <Compound>
C=Cc1cc(C(=O)Nc2ccc(C(=N)N)cc2)c(-c2ccc(C(=O)NCC3CC3)nc2C(=O)OC)cc1OC.CS(=O)(=O)O

>  <Reading>
A (A = 0-1,000 ng/mL)

$$$$
>  <Compound>
C=Cc1cc(C(=O)Nc2ccc(C(=N)NC(=O)OCCOC(=O)[C@@H](N)C(C)C)cc2)c(-c2ccc(C(=O)NCC3CC3)nc2C(=O)OC(C)OC(=O)C(C)C)cc1OC (stereo partly drawn) [Compound 101e]

>  <Reading>
A (A = 0-1,000 ng/mL)

$$$$
>  <Compound>
C=Cc1cc(C(=O)Nc2ccc(C(=N)NC(=O)OC(C)C)cc2)c(-c2ccc(C(=O)NCC3CC3)nc2C(=O)OC)cc1OC [Compound 20b]

>  <Reading>
A (A = 0-1,000 ng/mL)

$$$$
>  <Compound>
C=Cc1cc(C(=O)Nc2ccc(C(=N)NC(=O)OCCCCCC)cc2)c(-c2ccc(C(=O)NCC3CC3)nc2C(=O)OC(C)OC(=O)C(C)C)cc1OC (stereo not drawn) [Compound 36b]

>  <Reading>
C (C >10,000 ng/mL)

$$$$

I'd like to know its AUC0-last hour (area under the curve). The compound in question is C=Cc1cc(C=O)c(-c2ccc(C(=O)NCC3CC3)nc2C(=O)OC(OC(=O)C(C)(C)C)C(C)C)cc1OC (stereo not drawn) [Compound 56b]
C (C >10,000 ng/mL)

Please look up its AUC0-last hour (area under the curve): C=Cc1cc(C(=O)Nc2ccc(C(=N)NC(=O)OC[C@H]3OC[C@H](O)[C@@H]3O)cc2)c(-c2ccc(C(=O)NCC3CC3)nc2C(=O)OC(C)OC(=O)C(C)C)cc1OC (stereo partly drawn) [Compound 98e]
A (A = 0-1,000 ng/mL)

###

assay: Plasma pharmacokinetics of the parent compound after a single oral dose of prodrug; assay type: in vivo; conditions: single oral dose 10 mg/kg, fasted male Sprague Dawley rats; plasma analyzed for the parent compound; study duration 8 h
Reported Property: AUC0-last hour (area under the curve)

Below: 5 molecules and their reported AUC0-last hour (area under the curve).
>  <Molecule>
C=Cc1cc(C(=O)Nc2ccc(C(=N)NC(=O)OCCCCCC)cc2)c(-c2ccc(C(=O)NCC3CC3)nc2C(=O)OCOC(=O)CN)cc1OC [Compound 45b]

>  <AUC0-last hour (area under the curve)>
A (A = 0-1,000 ng/mL)

$$$$
>  <Molecule>
C=Cc1cc(C(=O)Nc2ccc(C(=N)NC(=O)OC(C)C)cc2)c(-c2ccc(C(=O)NCC3CC3)nc2C(=O)OC(C)OC(=O)OC(C)C)cc1OC (centres unmarked) [Compound 63c]

>  <AUC0-last hour (area under the curve)>
C (C >10,000 ng/mL)

$$$$
>  <Molecule>
C=Cc1cc(C(=O)Nc2ccc(C(=N)NC(=O)OCC)cc2)c(-c2ccc(C(=O)NCC3CC3)nc2C(=O)OC(C)OC(=O)OC(C)C)cc1OC (centres unmarked) [Compound 43a]

>  <AUC0-last hour (area under the curve)>
C (C >10,000 ng/mL)

$$$$
>  <Molecule>
C=Cc1cc(C(=O)Nc2ccc(C(=N)NC(=O)OCCCCCC)cc2)c(-c2ccc(C(=O)NCC3CC3)nc2C(=O)OCOC(=O)[C@@H](N)Cc2ccccc2)cc1OC [Compound 69d]

>  <AUC0-last hour (area under the curve)>
A (A = 0-1,000 ng/mL)

$$$$
>  <Molecule>
C=Cc1cc(C(=O)Nc2ccc(C(=N)NC(=O)OCCCCCC)cc2)c(-c2ccc(C(=O)NCC3CC3)nc2C(=O)OC(C)OC(=O)N[C@H](C(=O)OCC)[C@@H](C)CC)cc1OC (some centres unmarked) [Compound 91d]

>  <AUC0-last hour (area under the curve)>
A (A = 0-1,000 ng/mL)

$$$$

# input for lookup
Look up AUC0-last hour (area under the curve): C=Cc1cc(C(=O)Nc2ccc(C(=N)NC(=O)OCCCCCC)cc2)c(-c2ccc(C(=O)NCC3CC3)nc2C(=O)OC(C)OC(=O)N(C)C)cc1OC (centres unmarked) [Compound 90d]
A (A = 0-1,000 ng/mL)

###

assay: Plasma pharmacokinetics of the parent compound after a single oral dose of prodrug; format: in vivo; conditions: single oral dose 10 mg/kg, fasted male Sprague Dawley rats; plasma analyzed for the parent compound; study duration 8 h
Reported Property: AUC0-last hour (area under the curve)

>  <Compound>
C=Cc1cc(C(=O)Nc2ccc(C(=N)N)cc2)c(-c2ccc(C(=O)NCC3CC3)nc2C(=O)OCC(C)OC(=O)[C@@H](N)C(C)C)cc1OC (stereo partly drawn) [Compound 18e]

>  <Reading>
A (A = 0-1,000 ng/mL)

$$$$
>  <Compound>
C=Cc1cc(C(=O)Nc2ccc(C(N)=NO)cc2)c(-c2ccc(C(=O)NCC3CC3)nc2C(=O)O)cc1OC [Compound 9c]

>  <Reading>
A (A = 0-1,000 ng/mL)

$$$$
>  <Compound>
C=Cc1cc(C(=O)Nc2ccc(C(=N)NC(=O)OCC(O)CO)cc2)c(-c2ccc(C(=O)NCC3CC3)nc2C(=O)OC(C)OC(=O)OC(C)C)cc1OC (stereo not drawn) [Compound 84a]

>  <Reading>
A (A = 0-1,000 ng/mL)

$$$$

###

experiment: Plasma pharmacokinetics of the parent compound after a single oral dose of prodrug; format: in vivo; conditions: single oral dose 10 mg/kg, fasted male Sprague Dawley rats; plasma analyzed for the parent compound; study duration 12 h
Reported Property: AUC0-last hour (area under the curve)

>  <Compound>
C=Cc1cc(C(=O)Nc2ccc(C(=N)N)cc2)c(-c2ccc(C(=O)NCC3CC3)nc2C(=O)OCOC(=O)OC(C)C)cc1OC [Compound 14d]

>  <Reading>
A (A = 0-1,000 ng/mL)

$$$$
>  <Compound>
C=Cc1cc(C(=O)Nc2ccc(C(=N)N)cc2)c(-c2ccc(C(=O)NCC3CC3)nc2C(=O)OCc2oc(=O)oc2C)cc1OC [Compound 19d]

>  <Reading>
A (A = 0-1,000 ng/mL)

$$$$
>  <Compound>
C=Cc1cc(C(=O)Nc2ccc(C(=N)N)cc2)c(-c2ccc(C(=O)NCC3CC3)nc2C(=O)OCOC(=O)C(C)(C)C)cc1OC [Compound 15d]

>  <Reading>
A (A = 0-1,000 ng/mL)

$$$$
>  <Compound>
C=Cc1cc(C(=O)Nc2ccc(C(=N)N)cc2)c(-c2ccc(C(=O)NCC3CC3)nc2C(=O)OCCN2CCOCC2)cc1OC.Cl

>  <Reading>
A (A = 0-1,000 ng/mL)

$$$$

###

test: Plasma pharmacokinetics of the parent compound after a single oral dose of prodrug; format: in vivo; conditions: single oral dose 10 mg/kg, fasted male Sprague Dawley rats; plasma analyzed for the parent compound; study duration 8 h

>  <Molecule>
C=Cc1cc(C(=O)Nc2ccc(-c3noc(=O)[nH]3)cc2)c(-c2ccc(C(=O)NCC3CC3)nc2C(=O)OC(C)OC(=O)OC(C)C)cc1OC (centres unmarked) [Compound 52b]

>  <AUC0-last hour (area under the curve)>
A (A = 0-1,000 ng/mL)

$$$$
>  <Molecule>
C=Cc1cc(C(=O)Nc2ccc(C(=N)NC(=O)OC(C)COC(=O)CCCC[C@H]3SCC4NC(=O)NC43)cc2)c(-c2ccc(C(=O)NCC3CC3)nc2C(=O)OC(C)OC(=O)OC(C)C)cc1OC (some centres unmarked) [Compound 104b]

>  <AUC0-last hour (area under the curve)>
A (A = 0-1,000 ng/mL)

$$$$

###

Assay: Plasma pharmacokinetics of the parent compound after a single oral dose of prodrug
Type: in vivo
Conditions: single oral dose 10 mg/kg, fasted male Sprague Dawley rats; plasma analyzed for the parent compound; study duration 8 h
Method: Plasma pharmacokinetics of compounds was determined using three male Sprague Dawley rats following a single oral dose administration. All animals were placed in a rat metabolic cage, isolated, and fasted approximately 15 hours prior to dosing. Identifying markers were placed on each animal. […] Individual plasma samples were analyzed for the parent compound, 3-[2-(4-carbamimidoyl-phenylcarbamoyl)-5-methoxy-4-vinyl-phenyl]-6-(cyclopropylmethyl-carbamoyl)-pyridine-2-carboxylic acid. […]
Reported Property: AUC0-last hour (area under the curve)

>  <Compound>
C=Cc1cc(C(=O)Nc2ccc(C(=N)N)cc2)c(-c2ccc(C(=O)NCC3CC3)nc2C(=O)OC[C@H](C)OC(=O)[C@@H](N)C(C)C)cc1OC (single isomer, unassigned) [Compound 18f]

>  <AUC0-last hour (area under the curve)>
A (A = 0-1,000 ng/mL)

$$$$
>  <Compound>
C=Cc1cc(C(=O)Nc2ccc(C(=N)NC(=O)OCCC[C@H](O)C(=O)O)cc2)c(-c2ccc(C(=O)NCC3CC3)nc2C(=O)OC(C)OC(=O)C(C)C)cc1OC (stereo partly shown) [Compound 92a]

>  <AUC0-last hour (area under the curve)>
A (A = 0-1,000 ng/mL)

$$$$
>  <Compound>
C=Cc1cc(C(=O)Nc2ccc(C(=N)NC(=O)OC[C@@H]3CCC(=O)N3)cc2)c(-c2ccc(C(=O)NCC3CC3)nc2C(=O)OC(C)OC(=O)C(C)C)cc1OC (stereo partly shown) [Compound 103c]

>  <AUC0-last hour (area under the curve)>
A (A = 0-1,000 ng/mL)

$$$$
>  <Compound>
C=Cc1cc(C(=O)Nc2ccc(C(=N)NC(=O)OCCO)cc2)c(-c2ccc(C(=O)NCC3CC3)nc2C(=O)OC(C)OC(=O)C(C)C)cc1OC (stereo not shown) [Compound 85d]

>  <AUC0-last hour (area under the curve)>
A (A = 0-1,000 ng/mL)

$$$$
>  <Compound>
C=Cc1cc(C(=O)Nc2ccc(C(=N)N)cc2)c(-c2ccc(C(=O)NCC3CC3)nc2C(=O)OC(C)OC(=O)C(C)(C)C)cc1OC (stereo not shown) [Compound 22d]

>  <AUC0-last hour (area under the curve)>
A (A = 0-1,000 ng/mL)

$$$$
>  <Compound>
C=Cc1cc(C(=O)Nc2ccc(C(=N)N)cc2)c(-c2ccc(C(=O)NCC3CC3)nc2C(=O)OC[C@@H](C)OC(=O)[C@@H](N)C(C)C)cc1OC (single isomer, unassigned) [Compound 18g]

>  <AUC0-last hour (area under the curve)>
A (A = 0-1,000 ng/mL)

$$$$

What value of measured AUC0-last hour (area under the curve) is listed for C=Cc1cc(C(=O)Nc2ccc(C(=N)NC(=O)OCCCCCC)cc2)c(-c2ccc(C(=O)NCC3CC3)nc2C(=O)O)cc1OC [Compound 24c] ?
A (A = 0-1,000 ng/mL)

Value lookup for AUC0-last hour (area under the curve); key = C=Cc1cc(C(=O)Nc2ccc(C(=N)NC(=O)OC[C@H]3NC[C@H](O)[C@@H]3O)cc2)c(-c2ccc(C(=O)NCC3CC3)nc2C(=O)OC(C)OC(=O)OC(C)C)cc1OC (stereo partly shown) [Compound 99e]
A (A = 0-1,000 ng/mL)

What value of measured AUC0-last hour (area under the curve) is listed for C=Cc1cc(C(=O)Nc2ccc(C(=N)NC(=O)OCC)cc2)c(-c2ccc(C(=O)NCC3CC3)nc2C(=O)OC(C)OC(=O)C(C)C)cc1OC (stereo not shown) [Compound 42a] ?
C (C >10,000 ng/mL)

Which AUC0-last hour (area under the curve) is listed for C=Cc1cc(C(=O)Nc2ccc(C(=N)NC(=O)OCCOCC)cc2)c(-c2ccc(C(=O)NCC3CC3)nc2C(=O)OC(C)OC(=O)C(C)C)cc1OC (stereo not shown) [Compound 80c] ?
C (C >10,000 ng/mL)

GET /values?readout=AUC0-last hour (area under the curve)&item= C=Cc1cc(C(=O)Nc2ccc(C(=N)NC(=O)OCCCCCN)cc2)c(-c2ccc(C(=O)NCC3CC3)nc2C(=O)OC(C)OC(=O)C(C)C)cc1OC (stereo not shown) [Compound 102d]
A (A = 0-1,000 ng/mL)

Name the reported AUC0-last hour (area under the curve) value associated with the compound C=Cc1cc(C(=O)Nc2ccc(C(=N)NO)cc2)c(-c2ccc(C(=O)NCC3CC3)nc2C(=O)OC(C)OC(=O)OC(C)C)cc1OC (stereo not shown) [Compound 51b]
A (A = 0-1,000 ng/mL)

Sample C=Cc1cc(C(=O)Nc2ccc(C(=N)NC(=O)OCCCCCC)cc2)c(-c2ccc(C(=O)NCC3CC3)nc2C(=O)OCCN2CCOCC2)cc1OC.Cl [Compound 6a] — what was its AUC0-last hour (area under the curve)?
A (A = 0-1,000 ng/mL)
